# TARGET_UNDER_TEST: S2 subunit of the SARS-CoV-2 spike protein, WA01/2020 strain (SARS-CoV-2, WA01/2020 strain, UniProt P0DTC2 686-1213)
# MEASUREMENT_NOTES: dose-response ELISA; antigen taken from the column 'Structural data'
Known log10 EC50 of a selection of binders
Hello, just confirming the data are log10 of EC50 with units of nM.

Task: Data request, read-out log10 EC50, for antibody 1872 (antibody, V domains shown) VH: EVQLVESGGGLVKPGGSLRLSCAASGFSFSLYTMNWVRQAPGKGLEWVSYISSSSSYRYYADSVKGRFSVSRDNAKNALYLQMNGLRAEDTAVYYCARDGYCPRGVCTYYGMDVWGQGTTVTVSA VL: EIVMTQSPATLSVSPGERATLSCRASQSVGSRLAWYQQKPGQAPRLLIYDATIRATGIPARFSGSGSGTDFTLTISGLQSEDFAVYYCQRYNNWPPAYTFGQGTKLEIK
Result: -1.15

Task: Data request, read-out log10 EC50, for antibody 1815 (antibody, V domains shown) VH: QVQLQESGPGLVKPSETLSLTCSVSGGSINYYYWSWIRKSPGKGLEWIGFIYSSGTTNYNPSLKSRVSMSIGTSKRQFSLKLSSVTAADSAVYYCARHSRSCTNGVCQTYYYYALDVWGHGTTVTVSS VL: QSVLTQPPSVSGAPGQRVTISCTGSSSNIGAGYDVHWYQQLPGTAPKLLIYANTHRPSGVPDRFSASKSGTSASLAIAGLQAEDEGDYYCQSYDGSLSESAVFGGGTRLTVL
Result: -0.90

Task: Data request, read-out log10 EC50, for antibody 1823 (antibody, V domains shown) VH: EVQLVESGGGLVKPGGSLRLSCVASGFSFGLYTMNWVRQAPGKGLEWVSYISSSTSYKYYADSVKGRVSVSRDNAKNSLYLQLNGLRVEDTAVYYCARDGYCPNGICTYYGMDVWGQGTTVTVSA VL: EIVMTQSPATLSVSPGERATLSCRASQSVSSNLAWYQQKPGQAPRLLIYGASTRATGIPARFSGSGSGTEFTLTITGLQSEDFAVYYCQQYDKWPPAYSFGQGTKVEIK
Result: -0.21

Task: Data request, read-out log10 EC50, for antibody 1963 (antibody, V domains shown) VH: QVQLVQSGAEVKKPGASVKVSCKASGYTFTSNYIHWLRQAPGQGLEWMGIIKPSGTSTISAQKFRGRVAMTRDTSTSTVYMELSSLRFEDTAIYYCARDAKRALETWGQGTMVTVSS VL: QSVLTQPPSVSAAPGQKVTISCSGSSSNIGNNYVSWYQQLPGTAPKLLIYDNNKRPSGIPDRFSGSRSGTSATLGITGLQTGDEADYYCGTWDSSLSAWVFGGGTKLTVL
Result: -1.39

Task: Data request, read-out log10 EC50, for antibody 1871 (antibody, V domains shown) VH: EVQLVESGGGLVKPGGSLRLSCVASGFSFSIYSMNWVRQAPGKGLEWVSYISSSSSYKYYADSVKGRFSVSRDNAKNSLYLQLNGLRAEDTAVYYCARDGYCPKGVCTYYGMDVWGQGTTVTVSA VL: EIVMTQSPATLSVSPGERVTLSCRASQSVRSRLAWFQQKPGQAPRLLIYDASIRATGIPARFSGSGSGTEFTLIISSLQSEDFAVYYCQQYDNWPPAYTFGQGTKLEIK
Result: -0.99

Task: Data request, read-out log10 EC50, for antibody 1969 (antibody, V domains shown) VH: QVQLVQSGAEVKKPGASVKVSCKASGYSFTDYYIHWVRQAPGQGLEWMGIIKPSAGATVYAQKFRGRVSMTSDTSTGTVYMELSGLKSEDTAVYYCARDYNRSFDFWGQGTLVTVSS VL: QSVLTQPPSVSAAPGQTVTISCAGSTSNIGKNYVSWYQHLPGTAPKLLIYDNIKRPSGIPDRFSGSTSGTSATLGITELQTGDEADYYCGTWDSSLSAYVFGTGTKVTVL
Result: -1.46

***
Task: Data request, read-out log10 EC50, for antibody 1814 (antibody, V domains shown) VH: QVQLQESGPGLVKPSETLSLTCSVSGGSINYYYWSWIRQTPGQGLEWIGFIYSSGTTNYNPSLKSRVTMSKDTAKKQFSLKLTSVTAADSAVYYCARHSRSCTNGVCQTYYYYALDVWGHGTTVTVSS VL: QSVLTQPPSVSGAPGQRVTISCTGSGSNIGSGYDVHWYQQLPGRAPKLLIYRNRNRPSGVPDRFSGSKSGTSASLAIAGLQSEDEGDYFCQSYDGRLGESAVFGGGTRLTVL
Result: -1.11

Task: Data request, read-out log10 EC50, for antibody 1859 (antibody, V domains shown) VH: EVQLVESGGGLVKPGGSLRLSCAASGFSFNTYTMNWVRQAPGKGLEWVSYISSSSSYKYYSDSVKGRFSVSRDNAKKSLYLQMNGLRAEDTAVYYCARDGYCPNGVCTYYGMDVWGQGTTVTVSL VL: EIVMTQSPATLSVSPGERATLSCRASQSVSSNLAWYQQKPGQAPRLLIYGASTRATGIPARFSGSGSGTEFTLTISGLQSEDFAVYFCQQYSKWPPAYTFGQGTKLEIK
Result: 0.09

meta.source: patent US20230382979A1
